# System: SF-539 CNS
# protocol_notes: NCI-60 one-dose screen, 48 h (100 = growth as untreated, 0 = no growth, -100 = all killed)
# condition_notes: 10 µM unless noted
Compounds without any hit were thinned out: in the full panel of roughly 83,000, 20% have a hit. Calls of active or inactive are those of the source. How the source made its calls: active means growth percent below 10; inactive means the rest.

{"compound": "N[C@H](C(=O)O)[C@@H]1CC(Cl)=NO1", "growth": "21.4% [20 µM] (inactive)"}
{"compound": "CCOC(=O)c1c(C)[nH]c(CO)c1C", "growth": "104% (inactive)"}
{"compound": "CCC(c1cccc(O)c1)C(CC)c1cccc(O)c1 (centres undefined)", "growth": "39.1% (inactive)"}
{"compound": "CCC(=O)Sc1ccccc1C(=O)Nc1ccc(Cl)cc1", "growth": "49.7% (inactive)"}

* * *

# Test system: OVCAR-8 ovarian
# protocol_notes: NCI-60 one-dose screen, 48 h (100 = growth as untreated, 0 = no growth, -100 = all killed)
# condition_notes: 10 µM unless noted
Compounds without any hit were thinned out: in the full panel of roughly 83,000, 20% have a hit. Activity calls are given as the source filed them. The calls were made as follows: active = growth percent below 10; inactive = the rest.
A collection of compounds and their measured growth

{"compound": "O=C1OCc2cccc3cccc1c23", "growth": "101% (inactive)"}
{"compound": "CCC(c1cccc(O)c1)C(CC)c1cccc(O)c1 (stereo not drawn)", "growth": "85.6% (inactive)"}
{"compound": "CC(=O)C(=Cc1ccc(C=C(C(C)=O)C(C)=O)cc1)C(C)=O", "growth": "2.83% (active)"}
{"compound": "CC1OC(OC2C(OC3CCC4(C)C(CCC5(C)C4CC=C4C6CC(C)(C)CCC6(CO)C(O)CC45C)C3(C)C)OC(C(=O)O)C(OC3OC(COC4OC(CO)C(O)C(O)C4O)C(O)C(O)C3O)C2O)C(O)C(O)C1O (stereo not drawn)", "growth": "-51.8% (active)"}
{"compound": "CCC(CCCN(CC)CCc1ccccc1)OC(=O)c1cc(OC)c(OC)c(OC)c1 (stereo not drawn)", "growth": "92.2% (inactive)"}
{"compound": "Cc1cc2nc(CS)[nH]c2cc1C", "growth": "96.5% (inactive)"}
{"compound": "CC(=Nc1ccc(N(C)C)cc1)c1ccccc1", "growth": "25.7% (inactive)"}
{"compound": "Cc1ccnc(NC(c2ccccc2)c2ccc3cccnc3c2O)c1 (stereo not drawn)", "growth": "28.1% (inactive)"}
{"compound": "Cc1ccc(C(=Nc2ccccc2)N=P(c2ccccc2)(c2ccccc2)c2ccccc2)cc1", "growth": "6.99% (active)"}
{"compound": "CN1c2ccccc2C(C)(C)C12C=Cc1cc(O)ccc1O2 (stereo not drawn)", "growth": "67.3% (inactive)"}
{"compound": "O=C(Nc1ccc(F)cc1)ON=C1CCCCC1", "growth": "106% [100 µM] (inactive)"}
{"compound": "CN(Cc1cnc2nc(N)nc(N)c2n1)c1ccc(C(=O)NC(CCC(=O)O)C(=O)O)cc1 (stereo not drawn)", "growth": "24% (inactive)"}
{"compound": "NC1=CC(=O)c2ccccc2C1=O", "growth": "85.3% (inactive)"}

* * *

# Test system: MDA-MB-231 breast
# protocol_notes: NCI-60 one-dose screen, 48 h
# condition_notes: 10 µM unless noted
This is part of a sample that, as a whole, favours compounds with a hit. Of some 83,000 tested, about 20% had one in any assay. The source made the active and inactive calls. Rule for the calls: active = growth percent below 10; inactive = the rest.
Labels: active, inactive

{"compound": "CN=C(N)N/N=C(\\C)c1ccc2c(c1)Cc1cc(/C(C)=N/NC(N)=NC)ccc1-2", "category": "active"}
{"compound": "O=C(/C=C\\c1ccccc1)N1c2ccccc2CC1c1c[nH]c2ccccc12 (stereo not drawn)", "category": "inactive"}
{"compound": "Oc1c(Br)c(Br)c(O)c(Br)c1Br", "category": "inactive"}
{"compound": "Cn1c2c(c3ccccc31)CCN1C[C@@H]3CCCC[C@H]3C[C@@H]21", "category": "inactive"}
{"compound": "NC1=CC(=O)c2ccccc2C1=O", "category": "inactive"}
{"compound": "CCOC(=O)/C(=C\\c1ccc(-c2ccccc2)cc1)C(C)=O", "category": "inactive"}
{"compound": "COc1cc(NS(C)(=O)=O)ccc1Nc1c2ccccc2nc2ccccc12", "category": "inactive"}
{"compound": "C/C=C1\\SC(=S)NC1=O", "category": "inactive"}

Where do these numbers come from? They come from PubChem BioAssay (NCI).
